System: HTRA3-1
Assay: Holdup assay, HTRA3-1
Type: binding, human
measurementLabel: BI
Numbers only.

Problem: Under HTRA3-1: BI value of `CC[C@H](C)[C@H](NC(=O)[C@H](CCC(N)=O)NC(=O)[C@@H](NC(=O)[C@H](Cc1c[nH]cn1)NC(=O)[C@H](CCC(N)=O)NC(=O)[C@H](CC(=O)O)NC(=O)[C@H](CCC(=O)O)NC(=O)[C@H](CC(=O)O)NC(=O)CCC(=O)NCCCOCCOCCOCCCNC(=O)CCCC[C@@H]1SC[C@@H]2NC(=O)N[C@@H]21)[C@@H](C)O)C(=O)N[C@H](C(=O)N[C@@H](CCCCNC(C)=O)C(=O)N[C@H](C(=O)O)C(C)C)[C@@H](C)O` ?
Result: 0.011
